Provide the recorded TGI for the entries that follow.
tested on: SW-620 colon; assay: NCI tumour cell line growth inhibition, 48 h

Form field, TGI with SW-620 colon, item `CCOC(=O)NC(=O)c1cn(CCCOC(=O)CCCCCCCCC(=O)OCCCn2cc(C(=O)NC(=O)OCC)c(=O)[nH]c2=O)c(=O)[nH]c1=O` : 60.3 µM

Form field, TGI with SW-620 colon, item O=S(=O)(NC(c1ccccc1)(c1cc2ccccc2[nH]1)c1cc2ccccc2n1S(=O)(=O)c1ccccc1)c1ccccc1 (stereo not given) : > 100 µM

Form field, TGI with SW-620 colon, item `CC[O-].CC[O-].O=Nc1ccc2cc([O-])ccc2c1.O=Nc1ccc2cc([O-])ccc2c1.[Ti+4]` : 4.06 µM

Form field, TGI with SW-620 colon, item `Cc1ccc(NC2=C(Sc3ccc(Cl)cc3)C(=O)N(Cc3ccccc3)C2=O)cc1Cl` : 36.2 µM

Form field, TGI with SW-620 colon, item `COc1ccc(/C=C(\C#N)c2cc(OC)c3c(c2)OCO3)cc1` : > 100 µM

---

system: HT29 colon; experiment: NCI tumour cell line growth inhibition, 48 h; in the data active means GI50 below about 0.43 µM; inactive means the rest
A correct response names exactly one class from true (active), false (inactive)

Query: Can you look up the reported call for `COc1cc(-c2cn(-c3ccc(Cl)cc3)c(=O)[nH]2)cc(OC)c1OC` for me?
Response: false

Query: Can you look up the reported call for `CN(C)CC#Cc1cccc(C(=O)c2cnn(-c3ccc(F)cc3)c2N)c1` for me?
Response: false

Query: Can you look up the reported call for `Cc1ccc(C(=O)N/N=C/c2cccc(Oc3ccccc3)c2)cn1` for me?
Response: false

Query: Can you look up the reported call for `CC1(C)N=C(N)N=C(N)N1c1cccc(CCCCc2ccc(S(=O)(=O)F)cc2Cl)c1` for me?
Response: false

Query: Can you look up the reported call for `O=C(c1cc(-c2cc3c(cc2C(=O)N2Cc4ccccc4C[C@H]2CN2CCOCC2)OCO3)n2c1CCCC2)N(c1ccccc1)c1ccc(O)cc1` for me?
Response: false

Query: Can you look up the reported call for `O=C(Nc1cc(Cl)ccc1O)c1cccc(NC2=C(Cl)C(=O)N(Cc3ccccc3)C2=O)c1` for me?
Response: false

Query: Can you look up the reported call for `COc1cc2cnc3c(c2cc1OC)Cc1cc2c(cc1-3)OCO2` for me?
Response: true

Query: Can you look up the reported call for `CCOC(=O)[C@@H](C)C[C@H](Cc1ccccc1)NC(=O)c1csc([C@@H](C[C@H](C(C)C)N(C)C(=O)[C@H](CCC(C)C)NC(=O)[C@H]2CCCCN2C)OC(C)=O)n1` for me?
Response: true

Query: Can you look up the reported call for `COc1cccc(/C=C/C(=O)c2cc3c(N)c(C(=O)Nc4cccc(Cl)c4C)sc3nc2C)c1` for me?
Response: true

Query: Can you look up the reported call for `CCOC(=O)C(Cc1c[nH]c2cc([N+](=O)[O-])ccc12)(NC(C)=O)C(=O)OCC` for me?
Response: false

Query: Can you look up the reported call for `CCOc1cc2ncc(C#N)c(Nc3ccc(F)c(Cl)c3)c2cc1NC(=O)/C=C/CN(C)C` for me?
Response: false

Query: Can you look up the reported call for `CN1CCN(Cc2ccc(NC(=O)c3[nH]ncc3Nc3ncnc4c3CCC4)cc2)CC1` for me?
Response: false

Query: Can you look up the reported call for `Cc1cc(-c2nc3ccc(O)cc3s2)ccc1N` for me?
Response: false

Query: Can you look up the reported call for `c1ccc2[nH]c(-c3ccc(OCCCCCOc4ccc(-c5nc6ccccc6[nH]5)cc4)cc3)nc2c1` for me?
Response: false

Query: Can you look up the reported call for `N#CC(C#N)=CN1CCN(C(=O)c2ccccc2)C1=S` for me?
Response: false
